reported endpoint: melting point

| smiles string | readout value |
| --- | --- |
| C/C(=C\CNc1ncnc2nc(N(C)C)[nH]c12)CO | 245 to 249 °C |

IN: melting point lookup needed for COc1nc2ncnc(NCC=C(C)C)c2[nH]1 , thanks.
OUT: 205 to 210 °C

IN: I am curious: what melting point value has been reported for CCOC(=O)c1nc2ncnc(NCc3ccccc3)c2[nH]1 ?
OUT: 181 to 185 °C

IN: Using the record for CN(C)c1nc2ncnc(NCc3ccco3)c2[nH]1 , report its melting point.
OUT: 245 to 246 °C

* * *

# Test system: cytokinin-dependent tobacco callus
# protocol: Growth of cytokinin-dependent tobacco callus (plant cell division)
# Type: cell-based, Nicotiana tabacum L. cv. Wisconsin 38
# details: at concentration with highest activity; activity of kinetin set at 100%
reported endpoint: Activity (%)
Express the result in % but write the number alone.

Below, each entry is followed by its recorded Activity (%) result.
| smiles string | reported endpoint | value unit | readout value |
| --- | --- | --- | --- |
| CN(C)c1nc2ncnc(NCc3ccccc3)c2[nH]1 | Activity (%) | % | 165.64 |
| CSc1nc2ncnc(NCc3ccccc3)c2[nH]1 | Activity (%) | % | 109.36 |
| Nc1nc2ncnc(NCc3ccccc3)c2[nH]1 | Activity (%) | % | 197.08 |
| Clc1nc2ncnc(NCc3ccccc3)c2[nH]1 | Activity (%) | % | 157.51 |

IN: Can you look up Activity (%) on cytokinin-dependent tobacco callus for Sc1nc2ncnc(NCc3ccccc3)c2[nH]1 ?
OUT: 156.66

IN: Any idea what Activity (%) came out for NCCCNc1nc2ncnc(NCc3ccccc3)c2[nH]1 on cytokinin-dependent tobacco callus?
OUT: 150.01
